Molecular target: T1, UNK ZnF1-6 (called full-length) (human, UniProt Q9C0B0 30-357)
T1 sequence: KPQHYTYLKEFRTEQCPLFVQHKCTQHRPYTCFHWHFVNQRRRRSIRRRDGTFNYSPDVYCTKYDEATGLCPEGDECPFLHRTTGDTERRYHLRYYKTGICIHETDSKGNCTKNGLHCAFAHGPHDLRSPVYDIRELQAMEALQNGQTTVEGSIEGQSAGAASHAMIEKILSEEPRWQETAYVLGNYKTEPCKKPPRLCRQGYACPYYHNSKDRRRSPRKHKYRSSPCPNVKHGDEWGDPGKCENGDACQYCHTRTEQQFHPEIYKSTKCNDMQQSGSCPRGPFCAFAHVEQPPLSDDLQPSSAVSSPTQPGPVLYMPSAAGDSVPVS
Experiment: nsRBNS (natural sequence RNA bind-n-seq); RBNS binding buffer (assumed for nsRBNS): 25 mM Tris pH 7.5, 150 mM KCl, 3 mM MgCl2, 0.01% Triton X-100, 500 ug/ml BSA, 20 U/ml SUPERase-In, 4 C; UNK is unkempt and MSI1 is Musashi-1; names of the RNAs are library labels; protein concentration not given here; high values mean tight binding
Whole data set: some 5,800 sequences, median “enrichment r” near 0.68, cut for the highest 2% near 11. This excerpt belongs to a sample that is enriched for the highest values.
binding signal less than 3 enrichment R is y; binding signal greater than or equal to 3 enrichment R is n.

chr6:142752714:142752806:-|3pUTR|ENSG00000010818|msi1_unk|FALSE|overlapping (ssRNA) RNA: GGGAGUUCUACAGUCCGACGAUCUUUUCUUUACUUUGCUUAUAUUCUUAUAAGCAUUUUUUAGCAGUAAUUUGUACAUAUUUUAGAAUUUGUGUAUCUGCUUUGUAAUAAAUGUAAUUUCUUUCCUUUUUUGGACACUUGGAUCAACAGAGGAUUGAGCAUCA    y
chr7:137879121:137879144:-|3pUTR|ENSG00000182158|msi1_unk|FALSE|overlapping (ssRNA) RNA: GGGAGUUCUACAGUCCGACGAUCUAAUCCCCAACCUACUUUUAGUUUUUUUGUUUUUUUUUUAUGGUUAAAAGUAACUUUUGUAGUUUAAAAAAAUCUUUCCUCUUUCAUAUAAAUAAGAAGUGGAAAUUGCCUUUUUAUUGUCAACAGAGGAUUGAGCAUCA    n
chr19:35623609:35623710:+|3pUTR|ENSG00000249115|unk|FALSE|unique (ssRNA) RNA: GGGAGUUCUACAGUCCGACGAUCGCCUUCUAGUUUGUAUAGUUUCUUUUUUUACAUGUAAAUCAGCCAUUUGGAAUUUAUCCUAGCACAUGGAUCCAAUUUUGUCUUAUUUUACAUAUAUCCUAGUAGCACUUACUGAAAUUCCAACAGAGGAUUGAGCAUCA    n
chr4:110049619:110049852:-|3pUTR|ENSG00000170522|msi1|FALSE|unique (ssRNA) RNA: GGGAGUUCUACAGUCCGACGAUCUUGUUCAAUGUGACAUAAUAGUAUUAUAAUUGGUUAAGUAGCUUAAUGAUUAGGCAAACUAGAUGAAAAGAUUAGGGGCUUCCACACUGCAUAGAUUACACGCACAUAGCCACGCAUACACAACAGAGGAUUGAGCAUCA    n
chr7:5606511:5606625:+|3pUTR|ENSG00000075618|msi1_unk|FALSE|overlapping (ssRNA) RNA: GGGAGUUCUACAGUCCGACGAUCGGGUGUCUUGGUCUUUUAUUUUUUGUAAGUGUCAUUUGUAUAACUCUAAACGCCCAUGAUAGUAGCUUCAAACUGGAAAUAGCGAAAUAAAAUAACUCAGUCUGCAGCCCCAGGCCGGCCCAACAGAGGAUUGAGCAUCA    y
chr11:73394502:73394603:+|CDS|ENSG00000054967|msi1|total|mutant (ssRNA) RNA: GGGAGUUCUACAGUCCGACGAUCCACCAUCUCCACACCGUGCAGGGCCUGGCCUCGCUCUCUGGCCCCUGCUGCUCCCGCUGCCGCCAGAAGAAGUGGCCCGAGGUGCUGCUGUCCCCUGAGGCUGCCGCCGCCACUACUCCUCAACAGAGGAUUGAGCAUCA    y
ENSG00000186472:stop:overlap|stop_codon|ENSG00000186472|stop_codon|NA|stop_codon (ssRNA) RNA: GGGAGUUCUACAGUCCGACGAUCUUUCUUGUAAAUGGAAAUUUUAUCAUGUGUAUAGAUUCUGUAGCAUGCUUUUCUUUAUUUAGUUUUACUUUAUUCCUUUAUUGUUCUGUUUCUUGAUUGUUUGCUUGAUUUGUUUGGUGUCAACAGAGGAUUGAGCAUCA    y
ENSG00000165868:stop:overlap|stop_codon|ENSG00000165868|stop_codon|NA|stop_codon (ssRNA) RNA: GGGAGUUCUACAGUCCGACGAUCAGCAGCCGGCCAAGCAGUUCAUGAGACAAGCUGCCUACCAGGCGGACCCUAUGGAUCUUUAGGAGUAGAUUAUGAGUUCGAAAAACUUCUGUAUAAAAUAUUUGGAGAGGAUUUUAUUGACAACAGAGGAUUGAGCAUCA    y
chr8:11323570:11323671:+|3pUTR|ENSG00000104643|unk|FALSE|unique (ssRNA) RNA: GGGAGUUCUACAGUCCGACGAUCGAGCAUACAUAUACAAUGUGUUUCAAAUGCUGCUUGUAAAAUUAAACCAUCAUCUAGAAUAGAGUUAAUUUAUUAUAAUCAAGCUACAAAUAGGUUUUCUUAAACCAGAGAUGCACUGCCCAACAGAGGAUUGAGCAUCA    y
chr5:136174412:136174513:+|CDS|ENSG00000113658|unk|total|mutant (ssRNA) RNA: GGGAGUUCUACAGUCCGACGAUCUAUGUUGGUGGAGAGGUGUAUGCGGAAUGCCUCAGUGACAGCAGCAUAUUUGUACAGAGCCGGAACUGCAACUUUCAUCAUGGCUUUCAUCCCACCACUGUCUGUAAGAUUCCCAGCAGCCAACAGAGGAUUGAGCAUCA    y
chr9:14618660:14618761:-|3pUTR|ENSG00000175893|msi1|FALSE|unique (ssRNA) RNA: GGGAGUUCUACAGUCCGACGAUCUUAGCUUUCCACAGGGAUUUCUUGAAAUGCUUUUGUUAUUAAACUCAAAAGGCAGUGAUUAGGAUGAAAUAAUUGUACAUAAUUUAUUUUAGUACUGACAGUGUUACAGAUUCUAAUUUACAACAGAGGAUUGAGCAUCA    y
chr3:44647099:44647200:+|3pUTR|ENSG00000186448|msi1|FALSE|unique (ssRNA) RNA: GGGAGUUCUACAGUCCGACGAUCAUUUGUAUGUAAACUACAUAAAGAACUUUCCAAAUUUAACAGUAAUAAGUAAAUACAAUUAGAAAAUAAGCAAAAGACAGACAUUUCACUGAAGUAUAGAUAGCAAAUAAGCAAAUGAAACAACAGAGGAUUGAGCAUCA    n
